Documented inhibition at 10 µM across a set of compounds
biological target: UniProt P08684; experiment: Cytochrome P450 (CYP450) Inhibition Assay, CYP3A4 (Vivid fluorescence, BOMCC substrate); details: human, P450 Baculosomes (recombinant CYP3A4), probe BOMCC (Vivid substrate)

Study these solved cases before continuing.
O=C(NCc1ccccc1Cl)c1ccccc1CN1C(=O)C2(COc3cc4c(cc32)CCO4)c2ccccc21 (centres unmarked) [Example 12.16]; > 50%
O=C1N(Cc2ccccc2C(F)(F)F)c2ccccc2C12COc1cc3c(cc12)OCCO3 (centres unmarked) [Example 4.113]; < 50%

Q: Which inhibition at 10 µM value is on record for CC(C)CCN1C(=O)[C@]2(COc3cc4c(cc32)CCO4)c2ccccc21 [Example 5.2] ?
Result: > 50%

Q: Entry to check: N#Cc1ccc(CN2C(=O)C3(COc4cc5c(cc43)CCO5)c3ccccc32)cc1 (centres unmarked) [Example 4.23]
Result: < 50%

Q: Entry to check: CN(C(=O)CN1C(=O)C2(COc3cc4c(cc32)CCO4)c2ccccc21)c1ccccc1 (centres unmarked) [Example 12.52]
Result: > 50%

Q: Entry to check: CN1C(=O)C2(COc3cc4c(cc32)OCCO4)c2c(Oc3ccc4c(c3)OCO4)cccc21 (centres unmarked) [Example 16.83]
Result: > 50%

Q: Entry to check: CS(=O)(=O)Nc1cccc(CN2C(=O)C3(COc4cc5c(cc43)OCCO5)c3ccccc32)c1 (centres unmarked) [Example 11.94]
Result: > 50%

Q: Entry to check: CN(C)c1ccc(-c2cccc3c2C2(COc4cc5c(cc42)OCO5)C(=O)N3Cc2ccc(Cl)s2)cn1 (centres unmarked) [Example 16.12]
Result: > 50%

Q: Entry to check: CN1C(=O)C2(COc3cc4c(cc32)OCCO4)c2c(OCc3ncccc3C(F)(F)F)cccc21 (centres unmarked) [Example 16.58]
Result: > 50%

* * *

Documented melting point across a set of molecules

Study these solved cases before continuing.
O=C1N(Cc2ncccc2C(F)(F)F)c2ccccc2C12COc1ccc3c(c12)OCCO3 (stereo not shown) [Example 11.109]; 245 to 247 °C
CCCCCN1C(=O)[C@@]2(COc3cc4c(cc32)OCCO4)c2ccccc21 [Example 7.3]; 111 to 113 °C
O=C1N(Cc2cccc(C(F)(F)F)c2)c2ccccc2C12COc1cc3c(cc12)OCCO3 (stereo not shown) [Example 7.1]; 131 to 134 °C
O=C1N(C[C@H]2CCCO2)c2cc3c(cc2C12COc1cc4c(cc12)CCO4)OCCO3 (stereo partly shown) [Example 2.26]; 220 to 225 °C
O=C1N(Cc2ccc(C(F)F)o2)c2ccccc2C12COc1cc3c(cc12)OCCO3 (stereo not shown) [Example 11.110]; 173 to 175 °C
O=C(O)c1ccc(CN2C(=O)C3(COc4cc5c(cc43)OCCO5)c3ccccc32)cc1 (stereo not shown) [Example 11.87]; 234 to 237 °C
O=C1N(Cc2ccccn2)c2ccc3ncsc3c2C12COc1cc3c(cc12)OCCO3 (stereo not shown) [Example 9.72]; 156 to 158 °C
Cc1cccc(C)c1NC(=O)CN1C(=O)C2(COc3cc4c(cc32)CCO4)c2ccccc21 (stereo not shown) [Example 12.56]; 261 to 262 °C
O=C1N(Cc2cnc(Br)s2)c2ccccc2C12COc1cc3c(cc12)OCO3 (stereo not shown) [Example 4.81]; 215 to 217 °C

Let us move to another entry and its melting point.
Q: Which melting point value is on record for CN1C(=O)C2(COc3cc4c(cc32)OCCO4)c2c(C(=O)Nc3ccc(F)cc3)cccc21 (stereo not shown) [Example 16.47] ?
Result: > 250 °C

* * *

molecular target: CYP3A4 (Homo sapiens); assay: Cytochrome P450 (CYP450) Inhibition Assay, CYP3A4 (Vivid fluorescence, BOMCC substrate); settings: human, P450 Baculosomes (recombinant CYP3A4), probe BOMCC (Vivid substrate)
Sequence (P08684 whole entry): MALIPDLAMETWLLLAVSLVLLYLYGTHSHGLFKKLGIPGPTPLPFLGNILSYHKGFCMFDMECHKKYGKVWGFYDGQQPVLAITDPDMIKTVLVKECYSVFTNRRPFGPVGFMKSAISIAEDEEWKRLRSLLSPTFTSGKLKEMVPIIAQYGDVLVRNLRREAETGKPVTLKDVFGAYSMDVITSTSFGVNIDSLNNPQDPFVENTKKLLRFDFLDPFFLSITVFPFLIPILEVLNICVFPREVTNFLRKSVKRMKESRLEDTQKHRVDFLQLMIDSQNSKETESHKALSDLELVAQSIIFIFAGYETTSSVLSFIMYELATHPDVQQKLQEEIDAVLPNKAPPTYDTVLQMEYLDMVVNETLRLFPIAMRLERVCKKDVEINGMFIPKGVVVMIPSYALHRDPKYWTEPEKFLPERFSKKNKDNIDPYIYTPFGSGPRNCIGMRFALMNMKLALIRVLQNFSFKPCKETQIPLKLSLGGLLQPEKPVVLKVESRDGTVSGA
Documented inhibition at 10 µM across a set of compounds

Study these solved cases before continuing.
N#Cc1ccc2c(c1)OCC21C(=O)N(Cc2ccccn2)c2ccccc21 (centres unmarked); < 50%
COc1ccc(CN2C(=O)C3(COc4cc(F)c(C#N)cc43)c3ccccc32)cc1 (centres unmarked); > 50%
O=C1N(Cc2cnccn2)c2ccccc2[C@]12COc1cc3c(cc12)OCCO3; < 50%
O=C1N(CC2CN(Cc3ccccc3)CCO2)c2ccccc2C12COc1cc3c(cc12)OCCO3 (centres unmarked); > 50%
CN1C(=O)C2(COc3cc4c(cc32)OCCO4)c2c(Oc3ccccc3)cccc21 (centres unmarked); > 50%
CN1C(=O)C2(COc3cc4c(cc32)OCCO4)c2c(Oc3ncccc3C(F)(F)F)cccc21 (centres unmarked); > 50%

Q: Which inhibition at 10 µM value is on record for O=C1N(C[C@@H]2CCCO2)c2ccccc2C12COc1cc3c(cc12)CCO3 (some centres unmarked) ?
Result: < 50%

Q: Entry to check: CCCCCCN(C)C(=O)c1cccc(CN2C(=O)C3(COc4cc5c(cc43)CCO5)c3ccccc32)c1 (centres unmarked)
Result: > 50%
